Consider the following compounds; for each one, report its pEC50.
Tested on: Human neural stem cells (hNSCs)
assay-explanation: Neuronal differentiation of human neural stem cells (TUJ-1 staining)
Assay type: cell-based
condition-description: Homo sapiens, Neural stem cell, agent run independently; percentage of neuronal positive control, basal media values subtracted; read-out: EC50 for neuronal differentiation, agent alone
On this scale, pEC50 is minus log10 of a concentration expressed in M (mol/L).

The reported value for Nc1c2c(nc3ccccc13)CCCC2 [Tacrine, tetrahydroaminoacridine] in terms of pEC50 is 5.10

# pEC50 (compound: CSc1ccc(C(=O)c2[nH]c(=O)[nH]c2C)cc1 ) is 5.17

Lookup result for C[C@H](CS)C(=O)N1CCC[C@H]1C(=O)O ; measured pEC50: 5.42

CN(CCOc1ccc(CC2SC(=O)NC2=O)cc1)c1ccccn1 (stereo not shown) yielded pEC50 of 6.03
